Origin of measurements: patent US11149033B2

# Tested on: A/California/07/2009 (H1N1)
# Experiment: Antiviral activity (drug efficacy evaluation by concentration) against A/California/07/2009 (H1N1)
# Assay type: cell-based, A type influenza virus
# Measurement Context: Influenza A virus, H1N1; read-out: EC50
Recorded Endpoint: pEC50
Field pEC50 (float): negative decimal logarithm of the concentration in molar.

Here's what some known entries look like.
Compound	Target Under Test	Readout Number
Brc1ccc(Nc2nnc(CCc3ccccc3-c3ccccc3)o2)cc1 [Compound 118]	A/California/07/2009 (H1N1)	4.36
Clc1cc2c(cc1/C=C/c1nnc(Cc3ccc(Br)cc3)o1)OCO2 [Compound 162]	A/California/07/2009 (H1N1)	4.52
Cc1ccc(/C=C/c2nnc(Cc3cccc(Br)c3)o2)c(Cl)c1 [Compound 195]	A/California/07/2009 (H1N1)	5.21
Oc1ccccc1/C=C/c1nnc(Cc2ccc(Br)cc2)o1 [Compound 209]	A/California/07/2009 (H1N1)	4.33
Cc1cc(C)cc(Cc2nnc(/C=C/c3ccccc3C(C)C)o2)c1 [Compound 113]	A/California/07/2009 (H1N1)	5.86
Cc1cccc(C)c1CCc1nnc(Cc2ccc(Br)cc2)o1 [Compound 135]	A/California/07/2009 (H1N1)	5.19

// switching to the query compound
Q) Would you mind telling me what pEC50 value was observed for Brc1ccc(Cc2nc(/C=C/c3ccccc3)no2)cc1 [Compound 183] ?
A) 5.87

----------
A collection of molecules and their measured melting point
Expressed in °C, but write only the number.

Here's what some known entries look like.
Molecule	Unit Label	Readout Number
Fc1ccc(/C=C/c2nnc(Cc3ccc(Cl)c(Cl)c3)o2)c(Cl)c1	°C	179.9
Cc1ccccc1/C=C/c1nnc(Cc2ccc(Br)cc2)o1	°C	108.5
Cc1cccc(C)c1Nc1nnc(C(O)c2ccccc2)o1 (centres unmarked)	°C	179
Fc1ccc(/C=C/c2nnc(Cc3ccc(F)c(Br)c3)o2)c(Cl)c1	°C	123

Q) Would you mind telling me what melting point value was observed for "Oc1ccccc1/C=C/c1nnc(Cc2ccc(Br)cc2)o1" ?
A) 168.3

Q) Would you mind telling me what melting point value was observed for "Cc1ccccc1Sc1nnc(Cn2nc(C)c(Br)c2C)o1" ?
A) 103.6

Q) Would you mind telling me what melting point value was observed for "c1ccc(Nc2nnc(SCc3ccccc3-c3ccccc3)o2)cc1" ?
A) 172.1

Q) Would you mind telling me what melting point value was observed for "Brc1ccc(Nc2nnc(/C=C/c3ccccc3C3CCCCC3)o2)cc1" ?
A) 228.3

Q) Would you mind telling me what melting point value was observed for "Fc1ccc(/C=C/c2nnc(Cc3cccc(Br)c3F)o2)c(Cl)c1" ?
A) 135.8

Q) Would you mind telling me what melting point value was observed for "CN(C)c1cccc(Cc2nnc(/C=C/c3ccc(F)cc3Cl)o2)c1" ?
A) 134.2

----------
Recorded Endpoint: melting point (°C)
Expressed in °C, but write only the number.

Here's what some known entries look like.
Smiles Str	melting point / °C
Fc1ccc(/C=C/c2nnc(CCc3cccc(Br)c3)o2)c(Cl)c1	108.7
Cc1cccc(Cc2nnc(/C=C/c3ccc(F)cc3Cl)o2)c1	100.5
Brc1ccc(Cc2nnc(-c3cc4ccccc4o3)o2)cc1	145.7
Fc1ccc(/C=C/c2nnc(Cc3cncc4ccccc34)o2)c(Cl)c1	171.3
Fc1ccc(/C=C/c2nnc(Cc3ccccc3Br)o2)c(Cl)c1	155.2

Q) Would you mind telling me what melting point value was observed for "Cc1ccc(Br)cc1Cc1nnc(/C=C/c2ccc(F)cc2Cl)o1" ?
A) 169.3

Q) Would you mind telling me what melting point value was observed for "Fc1ccc(/C=C/c2nnc(Cc3ccc(Cl)nc3)o2)c(Cl)c1" ?
A) 163

Q) Would you mind telling me what melting point value was observed for "Cc1cc(Nc2nnc(CCc3ccccc3C)o2)ccc1Br" ?
A) 122.7

Q) Would you mind telling me what melting point value was observed for "Fc1ccc(/C=C/c2nnc(Nc3ccc(Br)cc3)o2)c(Cl)c1" ?
A) 218.7

Q) Would you mind telling me what melting point value was observed for "COC(=O)c1ccccc1/C=C/c1nnc(Cc2cccc(Br)c2)o1" ?
A) 131.1

Q) Would you mind telling me what melting point value was observed for "Cc1nn(Cc2nnc(SCc3ccccc3-c3ccsc3)o2)c(C)c1Br" ?
A) 86.9

Q) Would you mind telling me what melting point value was observed for "Fc1ccc(/C=C/c2nnc(Cc3cccc4ccccc34)o2)c(Cl)c1" ?
A) 152.7

Q) Would you mind telling me what melting point value was observed for "Fc1cc(Cl)ccc1/C=C/c1nnc(Cc2cccc(Br)c2)o1" ?
A) 107.2

Q) Would you mind telling me what melting point value was observed for "Fc1cc(F)c(/C=C/c2nnc(Cc3cccc(Br)c3)o2)c(Cl)c1" ?
A) 112
